System: E. coli (KCTC 1682)
Type: cell-based, Escherichia coli
Conditions: Control, absence of salts
Method: To comprehensively evaluate the therapeutic potential of BP100 and the five selected analogs, we assessed their capacity to maintain antibacterial activity in the presence of physiological salts and serum (Table 4). […] The minimal inhibitory concentrations (MICs) of the peptides against bacterial strains were determined using a modified broth-microdilution method in accordance with the National Committee for Clinical Laboratory Standards (NCCLS) guidelines. […]
Where no end group is shown, it is not given here.
For each record, write down the corresponding MIC.
Numbers only, in µM.

- substance: "KKLWKKILKWL-NH2 [BP8]"
  MIC (µM): 2

Give one value of MIC per listed substance.
1. KKWFKKILKWL-NH2 [BP6]
2. KKWWKKILKYL-NH2 [BP5]
3. KKWFKKWLKWL-NH2 [BP13]
4. KKLFKKIWKWL-NH2 [BP11]

Output line:
[4, 2, 8, 8]

###

tested on: sheep red blood cells (sRBCs); assay: Hemolytic activity assay; format: cell-based; conditions: 4% (v/v) sheep red blood cells in PBS, 1 h, 37 °C; 1 to 256 μM tested
Give HC10 (peptide concentration that caused 10% hemolysis) for every item shown.

Sample answers from the record:
- molecule: "CC(C)C[C@H](NC(=O)[C@H](Cc1ccc(O)cc1)NC(=O)[C@H](CCCCN)NC(=O)[C@H](CC(C)C)NC(=O)[C@H](Cc1c[nH]c2ccccc12)NC(=O)[C@H](CCCCN)NC(=O)[C@H](CCCCN)NC(=O)[C@H](Cc1ccccc1)NC(=O)[C@H](CC(C)C)NC(=O)[C@H](CCCCN)NC(=O)[C@@H](N)CCCCN)C(N)=O [BP2]"
  reported: ">256 µM"
- molecule: "CC[C@H](C)[C@H](NC(=O)[C@H](CCCCN)NC(=O)[C@H](CCCCN)NC(=O)[C@H](Cc1ccccc1)NC(=O)[C@H](CC(C)C)NC(=O)[C@H](CCCCN)NC(=O)[C@@H](N)CCCCN)C(=O)N[C@@H](CC(C)C)C(=O)N[C@@H](CCCCN)C(=O)N[C@@H](Cc1ccc(O)cc1)C(=O)N[C@@H](CC(C)C)C(N)=O [BP100]"
  reported: ">256 µM"

Alright, here's another molecule for you.
Input line: For sheep red blood cells (sRBCs), give the measured HC10 (peptide concentration that caused 10% hemolysis) of the entry CC[C@H](C)[C@H](NC(=O)[C@H](CCCCN)NC(=O)[C@H](CCCCN)NC(=O)[C@H](Cc1ccccc1)NC(=O)[C@H](CC(C)C)NC(=O)[C@H](CCCCN)NC(=O)[C@@H](N)CCCCN)C(=O)N[C@@H](CC(C)C)C(=O)N[C@@H](CCCCN)C(=O)N[C@@H](Cc1c[nH]c2ccccc12)C(=O)N[C@@H](CC(C)C)C(N)=O [BP4]
Output line: >256 µM

###

Provide the recorded FICI: fractional inhibitory concentration index for the entries that follow.
test system: MDRPA (CCARM 2095); format: cell-based, multidrug-resistant Pseudomonas aeruginosa; conditions: peptide with ciprofloxacin, [A]/MICA + [B]/MICB
Where no end group is shown, it is not given here.
Give bare numbers.

As a guide, the following entries are already answered.
- substance: "KKWWKKILKYL-NH2 [BP5]"
  reported: 0.3125
- substance: "KKWFKKILKWL-NH2 [BP6]"
  reported: 0.375
- substance: "KKWFKKWLKWL-NH2 [BP13]"
  reported: 0.2656

Now let's try a different one.
Input line: Could you please provide reported FICI: fractional inhibitory concentration index for KKLFKKIWKWL-NH2 [BP11] ? Thanks!
Output line: 0.3125

###

system: S. epidermidis (KCTC 1917); assay type: cell-based, Staphylococcus epidermidis; conditions: broth microdilution in MHB, 37 °C, 24 h, 100% inhibition of growth
quantity_measured: Minimal Inhibitory Concentration (MIC) (µM)
Numbers only, in µM.

Please review the following examples before continuing.
- molecule: "CC[C@H](C)[C@H](NC(=O)[C@H](CCCCN)NC(=O)[C@H](CCCCN)NC(=O)[C@H](Cc1c[nH]c2ccccc12)NC(=O)[C@H](CC(C)C)NC(=O)[C@H](CCCCN)NC(=O)[C@@H](N)CCCCN)C(=O)N[C@@H](CC(C)C)C(=O)N[C@@H](CCCCN)C(=O)N[C@@H](Cc1ccc(O)cc1)C(=O)N[C@@H](CC(C)C)C(N)=O [BP1]"
  measured_target: "S. epidermidis (KCTC 1917)"
  Minimal Inhibitory Concentration (MIC) (µM): 8
- molecule: "CC[C@H](C)[C@H](NC(=O)[C@H](CCCCN)NC(=O)[C@H](CCCCN)NC(=O)[C@H](Cc1ccccc1)NC(=O)[C@H](CC(C)C)NC(=O)[C@H](CCCCN)NC(=O)[C@@H](N)CCCCN)C(=O)N[C@@H](Cc1c[nH]c2ccccc12)C(=O)N[C@@H](CCCCN)C(=O)N[C@@H](Cc1ccc(O)cc1)C(=O)N[C@@H](CC(C)C)C(N)=O [BP3]"
  measured_target: "S. epidermidis (KCTC 1917)"
  Minimal Inhibitory Concentration (MIC) (µM): 8
- molecule: "CC(C)C[C@H](NC(=O)[C@H](Cc1ccc(O)cc1)NC(=O)[C@H](CCCCN)NC(=O)[C@H](CC(C)C)NC(=O)[C@H](Cc1c[nH]c2ccccc12)NC(=O)[C@H](CCCCN)NC(=O)[C@H](CCCCN)NC(=O)[C@H](Cc1ccccc1)NC(=O)[C@H](CC(C)C)NC(=O)[C@H](CCCCN)NC(=O)[C@@H](N)CCCCN)C(N)=O [BP2]"
  measured_target: "S. epidermidis (KCTC 1917)"
  Minimal Inhibitory Concentration (MIC) (µM): 2
- molecule: "CC[C@H](C)[C@H](NC(=O)[C@H](CCCCN)NC(=O)[C@H](CCCCN)NC(=O)[C@H](Cc1ccccc1)NC(=O)[C@H](CC(C)C)NC(=O)[C@H](CCCCN)NC(=O)[C@@H](N)CCCCN)C(=O)N[C@@H](CC(C)C)C(=O)N[C@@H](CCCCN)C(=O)N[C@@H](Cc1ccc(O)cc1)C(=O)N[C@@H](CC(C)C)C(N)=O [BP100]"
  measured_target: "S. epidermidis (KCTC 1917)"
  Minimal Inhibitory Concentration (MIC) (µM): 4

Input line: For the molecule CC[C@H](C)[C@H](NC(=O)[C@H](CCCCN)NC(=O)[C@H](CCCCN)NC(=O)[C@H](Cc1ccccc1)NC(=O)[C@H](CC(C)C)NC(=O)[C@H](CCCCN)NC(=O)[C@@H](N)CCCCN)C(=O)N[C@@H](CC(C)C)C(=O)N[C@@H](CCCCN)C(=O)N[C@@H](Cc1c[nH]c2ccccc12)C(=O)N[C@@H](CC(C)C)C(N)=O [BP4] , report Minimal Inhibitory Concentration (MIC).
Output line: 8

###

test system: preformed MDRPA (CCARM 2095) biofilms; format: cell-based, multidrug-resistant Pseudomonas aeruginosa; settings: 24 h treatment, 50% eradication
Where no end group is shown, it is not given here.
quantity_measured: MBEC50

Examples with answers:
- substance: "KKLFKKIWKWL-NH2 [BP11]"
  MBEC50: "4 to 8 µM"
- substance: "KKLFKKWLKYW-NH2 [BP10]"
  MBEC50: "8 to 16 µM"
- substance: "KKLFKKILKWW-NH2 [BP12]"
  MBEC50: "8 to 16 µM"

Go through the list and state MBEC50 for each entry.
1. KKLWKKWLKYW-NH2 [BP14]
2. KKLWKKIWKYW-NH2 [BP15]
3. KKLWKKIWKYL-NH2 [BP7]

Output line:
8 to 16 µM
8 to 16 µM
4 to 8 µM
